# PROCEDURE DETAILS: Retention time of the compound
# Type: physicochemical
MEASURED METRIC: Retention_time (min)
Please respond with the number in min and leave the unit unwritten.

# example entries with known answers
- STRUCTURE: "O=C(NCCCCCc1ccccc1)n1cccn1"
  MEASURE UNIT: "min"
  RECORDED NUMBER: 4.011
- STRUCTURE: "Cc1ccc(CNC(=O)n2cc(C#N)cn2)cc1"
  MEASURE UNIT: "min"
  RECORDED NUMBER: 3.97

Please report the measured Retention_time for Cc1cnn(C(=O)OCc2ccc(-c3ccccc3)cc2)c1
4.102

Please report the measured Retention_time for Cc1cnn(C(=O)OCc2ccc3ccccc3c2)c1
3.998

Please report the measured Retention_time for Cc1cnn(C(=O)N2CCCN(C(=O)OC(C)(C)C)CC2)c1
3.959

Please report the measured Retention_time for N#Cc1cnn(C(=O)CCCCCc2ccccc2)c1
3.998

Please report the measured Retention_time for N#Cc1cnn(C(=O)CCCCc2ccccc2)c1
3.702

Please report the measured Retention_time for Cc1cnn(C(=O)OCCCCCc2ccccc2)c1
4.104

Values from ChEMBL document CHEMBL3352336
